system: Plasmodium berghei; assay: Screen against P. berghei liver stage (PbLuc), transformed with Luciferase, at 10uM; format: functional, HepG2; settings: tested at 10 uM
The campaign covered roughly 69,000 compounds. About 8,600 (12%) showed an effect of 50% or more. Only a selection was taken, and strong results are over-represented in it overall.
Item-by-item account of INHIBITION

- Molecule: "CC(NC(=O)NCCNc1cnccn1)c1cccs1 (configuration not stated)"
  Target Of Assay: "Plasmodium berghei"
  INHIBITION, %: -0.847
- Molecule: "CC(NC(=O)NCCNc1ncccn1)c1cccs1 (configuration not stated)"
  Target Of Assay: "Plasmodium berghei"
  INHIBITION, %: 56.6
- Molecule: "CCc1nccn1-c1cccc(C2CCCN2S(=O)(=O)N(C)C)n1 (configuration not stated)"
  Target Of Assay: "Plasmodium berghei"
  INHIBITION, %: 36.7
- Molecule: "COc1cccc(-n2nc(C(C)=O)c(C(C)=O)c2C)c1"
  Target Of Assay: "Plasmodium berghei"
  INHIBITION, %: -17
- Molecule: "CC(C)c1nccn1-c1cccc(C2CCCN(C3CCCC3)C2)n1 (configuration not stated)"
  Target Of Assay: "Plasmodium berghei"
  INHIBITION, %: 35.3
- Molecule: "CN(C)S(=O)(=O)N1CCC(c2ccnc(Nc3ccccn3)n2)C1 (configuration not stated)"
  Target Of Assay: "Plasmodium berghei"
  INHIBITION, %: 29.5
- Molecule: "CC(=O)N1CCC(C(=O)N2CCCC(Cc3cccc(C)n3)C2)CC1 (configuration not stated)"
  Target Of Assay: "Plasmodium berghei"
  INHIBITION, %: -18.9
- Molecule: "CC(NC(=O)NCCCc1n[nH]c(N)c1C#N)c1ccccc1 (configuration not stated)"
  Target Of Assay: "Plasmodium berghei"
  INHIBITION, %: 31
- Molecule: "O=C1[C@H]2CN(Cc3ccccc3)C[C@H]2CN1CCN1CCCC1"
  Target Of Assay: "Plasmodium berghei"
  INHIBITION, %: -55.3
- Molecule: "CC(C)c1nccn1-c1cccc(C2CCN(C)CC2)n1"
  Target Of Assay: "Plasmodium berghei"
  INHIBITION, %: 58
- Molecule: "CC(NC(=O)NCCCc1n[nH]c(N)c1C#N)c1ccc(F)cc1 (configuration not stated)"
  Target Of Assay: "Plasmodium berghei"
  INHIBITION, %: -25.8
- Molecule: "CC(C)C(NC(=O)NCCNc1ccccn1)c1cccs1 (configuration not stated)"
  Target Of Assay: "Plasmodium berghei"
  INHIBITION, %: 50.4

Just for reference, ChEMBL document CHEMBL4513216 is where these values come from.
